# Test system: embryonated chicken SPF eggs
# Experimental Conditions: in vivo
Recorded Endpoint: CC50

Endpoint output: CC50 of Cc1ccc(C2=CC(=Cc3c(C)nn(-c4ccccc4)c3Cl)C(=O)N2)cc1 [Compound 4] . Value? 500 > µl/ egg

What does the data say about its CC50? Entry: Cc1ccc(-c2cc(Cc3c(C)nn(-c4ccccc4)c3Cl)c(=O)[nH]n2)cc1 [Compound 9] 400 > µl/ egg

Quick one: CC50 of Cc1ccc(C(=O)CC(=Cc2c(C)nn(-c3ccccc3)c2Cl)C(=O)NN=Cc2cn(-c3ccccc3)nc2-c2ccccc2)cc1 [Compound 16] ? 500 > µl/ egg

Using the record for Cc1ccc(C2=CC(=Cc3c(C)nn(-c4ccccc4)c3Cl)C(=O)N2NC(=O)c2ccccc2)cc1 [Compound 14] , report its CC50. 500 > µl/ egg
